Assay comment: small-molecule binders of probe aNOTCH2, primary screen, biochemical, small-molecule microarray, 635/667 nm fluorescence (AID 1121);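 further: score merges feature fluorescence read at 667 nm with its signal to noise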
Measurement setup: higher = more signal
Criterion: composite z-score meeting or surpassing -0.1. Met: true (1). Not met: false (0).

Look over these answered cases.
CC(C)(C)OC(=O)CC[C@]1(C(=O)N2CCOCC2)COC(c2ccc(OCCCO)cc2)=N1 :: false (0)
C[C@]1(C(=O)O)c2ccccc2C(=O)N(Cc2cc(C(F)(F)F)cc(C(F)(F)F)c2)[C@H]1c1ccc(CO)cc1 :: false (0)
CO[C@H]1O[C@H](CO)[C@@H](OC(=O)Nc2ccccc2)[C@@H]2OC(=O)[C@@H](Cc3ccccc3)C/C=C/C[C@H](Cc3ccccc3)C(=O)O[C@@H]12 :: true (1)
C=C(CC1([C@@H](NP(=O)(c2ccccc2)c2ccccc2)[C@H]2C[C@@H]2CCCC)CC1)c1cccc(OC)c1 :: true (1)
COc1ccc(C(=O)Nc2ccc(CN3C(=O)[C@]4(O[C@H](CC(=O)N(CCO)Cc5ccccc5)[C@@H]([Si](C)(C)c5ccc(OC)cc5)[C@@H]4C)c4ccccc43)cc2)cc1 :: false (0)

Prompt line: Quick check, composite z-score >= -0.1? `O=C1O[C@H](c2ccccc2)[C@H](c2ccccc2)N2[C@H]1[C@@H](C(=O)N1CCCCCCC1)[C@]1(C(=O)Nc3ccc(C#CCCO)cc31)[C@H]2c1ccc(O)cc1`
Response line: true (1)
